# IC50 per entry
- Tested on: INS-1E cells
- assay: Glucose-stimulated insulin secretion
- Format: cell-based, rat
- experimental_context: read-out: IC50, inhibition of GSIS; INS-1E, 20 mM glucose, 90 min
Give the quantity in µM, number only.

**Q:** For `Clc1cccc(Cl)c1N=C1NCCN1` , what is its reported IC50?
**A:** 0.00906

**Q:** Please do the same for `CC(C)C[C@H]1C(=O)N2CCC[C@H]2[C@]2(O)O[C@](NC(=O)[C@@H]3C=C4c5cccc6[nH]c(Br)c(c56)C[C@H]4N(C)C3)(C(C)C)C(=O)N12` as well.
**A:** 0.014
